target: HLA-A*24 (human); assay: UV-exchange ELISA, exchange yield grade
assay-endpoint: peptide exchange yield

Examples from the recorded data:
INSERT INTO results (binder, assay_endpoint, assay_value) VALUES
  ('YYFFVQEKI [… (SEQ ID NO: 240)]', 'peptide exchange yield', '50 to 75%'),
  ('IFHEVPLKF [… (SEQ ID NO: 351)]', 'peptide exchange yield', '50 to 75%'),
  ('KYIGNLDLL [… (SEQ ID NO: 221)]', 'peptide exchange yield', '> 75%'),
  ('NYSSAVQKF [… (SEQ ID NO: 178)]', 'peptide exchange yield', '50 to 75%'),
  ('QYLDGTWSL [… (SEQ ID NO: 114)]', 'peptide exchange yield', '> 75%'),
  ('QYLELAHSL [… (SEQ ID NO: 366)]', 'peptide exchange yield', '50 to 75%'),
  ('VYPAEQPQI [… (SEQ ID NO: 306)]', 'peptide exchange yield', '50 to 75%'),
  ('LYLENNAQTQF [… (SEQ ID NO: 193)]', 'peptide exchange yield', '50 to 75%');

Answer for every listed entry: what is its peptide exchange yield? The entries follow.
1. TFSDVEAHF [… (SEQ ID NO: 386)]
2. KYTDWTEFL [… (SEQ ID NO: 266)]
3. QFITSTNTF [… (SEQ ID NO: 357)]
4. SYGTVSQI [SYGTVSQI (SEQ ID NO: 149)]

RESULT:
1. 50 to 75%
2. 50 to 75%
3. > 75%
4. > 75%

Answer for every listed entry: what is its peptide exchange yield? The entries follow.
1. EYNSDLHQFF [… (SEQ ID NO: 345)]
2. VFSPDGHLF [… (SEQ ID NO: 360)]

RESULT:
1: 50 to 75%; 2: 50 to 75%
